Tested on: Sam68 (KHDRBS1)
Assay: Sam68 small-molecule binders, primary screen, biochemical, small-molecule microarray, 635 nm fluorescence (AID 1125);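 note: score merges 667 nm channel intensity with signal to noise over triplicate slides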
Conditions: small-molecule microarray binding, higher = more signal
Class membership depends on composite z-score alone; the intervals are low value = under 0.3, medium value = from 0.3 up to 1, high value = 1 and over

// known answers, use as guide
Hey, which category is C#CCN(CC1=CCCCC1)[C@H](c1ccccc1Br)[C@@H](O)Cc1ccccc1 in, do you know?
medium value

Hey, which category is O=C(NCc1ccccc1)[C@@]1(CCS(=O)(=O)c2ccccc2)N=C(c2ccc(OCCCO)cc2)O[C@H]1c1ccccc1 in, do you know?
high value

Hey, which category is Cc1ccc(S[C@]2(C(=O)NCCN3CCOCC3)CC(=O)N(Cc3ccccc3)[C@@H]2c2ccc(CO)cc2I)cc1 in, do you know?
low value

Hey, which category is C[N+](C)(C)CCCC[C@@H]1NC(=O)[C@@H]2C[C@H](C(=O)NCCCCCN)[C@H](c3cccc(OCCO)c3)N2C1=O in, do you know?
high value

Hey, which category is CCCCCN1CC=CC23O[C@@H]4/C=C\CCCOC(=O)C4[C@H]2C(=O)N(C(CO)C(C)C)[C@@H]3C1=O (stereo not given in full) in, do you know?
low value

More entries:
Hey, which category is COc1ccc(C(O)C2C=CC3C(=O)NC(=O)C3N2Nc2ccccn2)cc1 (stereo not given) in, do you know?
low value

Hey, which category is O=C(NCc1ccccc1)[C@@H]1c2ccccc2C(=O)N(CC23CC4CC(CC(C4)C2)C3)[C@H]1c1ccc(CO)cc1 in, do you know?
high value

Hey, which category is COc1ccc([Si](C)(C)[C@H]2[C@H](CCO)O[C@@]3(C(=O)N(Cc4ccc(N5C(=O)COc6ccccc65)cc4)c4ccccc43)[C@@H]2C)cc1 in, do you know?
medium value

Hey, which category is COc1ccc([Si](C)(C)[C@@H]2[C@@H](CC(=O)N3Cc4ccccc4C[C@H]3CO)O[C@]3(C(=O)N(C)c4c(Br)cc(C)cc43)[C@H]2C)cc1 in, do you know?
high value

Hey, which category is CC(=O)NCCCC[C@@H]1NC(=O)[C@@H]2C[C@H](C(=O)NCCCCN(C)C)[C@H](c3cccc(OCCO)c3)N2C1=O in, do you know?
low value

Hey, which category is COc1ccc(C(O)C2C=CC3C(=O)N(c4ccccc4)C(=O)C3N2Nc2ccccc2F)cc1OCc1ccccc1 (stereo not given) in, do you know?
high value

Hey, which category is CC(C)(C)OC(=O)CC[C@@]12N=C(c3ccc(OCCCO)cc3)O[C@@H]1c1ccccc1N(CCS(=O)(=O)c1ccccc1)C2=O in, do you know?
medium value

Hey, which category is COC(=O)c1c(CC[C@@H](CO)NC(=O)N[C@@H](C)Cn2cc(C3(O)CCCCC3)nn2)oc(C(C)=O)c1C(=O)OC in, do you know?
high value

Hey, which category is CN(C)C(=O)[C@@]1(Cc2ccccc2CN=[N+]=[N-])N=C(c2ccc(OCCCO)cc2)O[C@H]1c1ccccc1 in, do you know?
high value

Hey, which category is COC(=O)[C@@]1(Cc2ccc(F)cc2)[C@H]2c3cc(C(=O)N(C)C)n(Cc4ccc(S(C)(=O)=O)cc4)c3C[C@H]2CN1C(=O)c1ccccc1 in, do you know?
low value
